Experiment: NCI Yeast Anticancer Drug Screen. Data for the mec2-1 strain (AID 157)
Settings: S. cerevisiae mec2-1 strain, at 50.0 µM
Compounds without any hit were thinned out: in the full panel of roughly 79,000, 15% have a hit. Active and inactive are the calls of the source. Rule as the data show it: active = growth inhibition above about 70%; inactive = the rest. Where a SMILES comes first, the peptide text is derived from it. [ ]: non-standard residue; d: D form. The star is where a group is joined. Phe(4-NO2) = N[CH](Cc1ccc([N+](=O)[O-])cc1)C(=O)O; Boc = CC(C)(C)OC(=O)*; OtBu = CC(C)(C)O*
Outcome (select one): active, inactive

Example cases with answers are listed next.
# compound, label class
rows = [
    ("Cc1c(C(N)=O)c(-c2ccccc2)c(-c2ccccc2)n1Nc1ccccc1", "inactive"),
    ("CN(N=O)C(=O)NC(CCCCNC(=O)OCc1ccccc1)C(=O)OCc1ccccc1 (stereo not given)", "inactive"),
    ("OCC1NCC(O)C(O)C1O (stereo not given)", "inactive"),
    ("F[B-](F)(F)[NH2+]c1ccc(-c2ccc([NH2+][B-](F)(F)F)c(Cl)c2)cc1Cl", "inactive"),
    ("[N-]=[N+]=C(C(=O)N1CCCC1=O)S(=O)(=O)c1ccccc1", "inactive"),
    ("FC(F)(F)c1ccc(C(Nc2nncs2)Nc2nncs2)cc1", "inactive"),
    ("CC(C)(C)OC(=O)N1CCc2c(n(C/C=C/c3ccccc3)[nH]c2=O)C1", "inactive"),
    ("CC(=O)SCC(C)CCl (stereo not given)", "inactive"),
    ("COc1ccc(C(O)C(=O)c2nc3ccc([N+](=O)[O-])cc3[nH]c2=O)cc1 (stereo not given)", "inactive"),
    ("CC1(C=O)CCCC2(C)[C@@H]1CCC13CC(CO)C(CC[C@H]12)C3 (stereo not given in full)", "inactive"),
]

### Prompt Entry CC(=O)OCC1OC(n2c(C)c(C(C)=O)c(-c3ccc(Cl)cc3)c(C#N)c2=S)C(OC(C)=O)C(OC(C)=O)C1OC(C)=O (stereo not given) : call = ?
### Response inactive

### Prompt Entry CC(=O)Nc1c(F)cc(F)cc1[N+](=O)[O-] : call = ?
### Response inactive

### Prompt Entry CC(=O)NC(CCC(=O)OC(C)(C)C)C(=O)NC(CCC(=O)OC(C)(C)C)C(=O)NC(Cc1ccc([N+](=O)[O-])cc1)C(=O)NC(CCCCNC(=O)OC(C)(C)C)C(=O)NC(CCCCNC(=O)OC(C)(C)C)C(=O)NCC(=O)O (stereo not given) (Ac-E(OtBu)E(OtBu)[Phe(4-NO2)]K(Boc)K(Boc)G-OH; configuration not given here) : call = ?
### Response inactive

### Prompt Entry Nc1nc(-c2ccccn2)cc(-c2cc(-c3ccccn3)nc(N)n2)n1 : call = ?
### Response inactive

====

Experiment: NCI Yeast Anticancer Drug Screen. Data for the rad50 strain (AID 155);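 also: 0% = growth of vehicle-only cultures of the same strain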
Conditions: S. cerevisiae rad50 strain growth inhibition; at 50.0 µM; active compounds read high
The panel holds about 79,000 compounds, 15% with a hit somewhere; the sample as a whole holds those more often.
quantity name: growth inhibition (%)
Give bare numbers, in %.

Example results:
# molecule, quantity unit, growth inhibition
records = [
    ("N#CCCN(C1=NN(C(=O)CC(=O)Nc2ccc(Cl)cc2)C(c2ccccc2)C1)c1ccc(Cl)cc1 (configuration not stated)", "%", 14.3),
    ("Nc1ccc(S(=O)(=O)Nc2nccs2)cc1", "%", -0.6),
    ("O=c1nc(Sc2ccccc2)ccn1C1OC(CO)C(O)C1O (configuration not stated)", "%", -11.5),
    ("CN1C(=S)CSc2ccccc21", "%", -8.5),
    ("C[n+]1cccc(C(=O)O)c1-c1ccccc1", "%", 20.4),
    ("CCn1c(C)nc2c(N)cccc2c1=O", "%", 24.4),
    ("CCOc1nc2ccc(N)cc2s1", "%", 19.6),
    ("O=C(O)CSc1ccc2c3c(cccc13)C(=O)c1ccccc1-2", "%", -9.9),
]

# return growth inhibition for each item in the list
1. Cc1nc2ccc(Cl)c(Cl)c2s1
2. COc1ccc(Cl)cc1NC(=O)c1ccccc1C(=O)O
3. O=C(O)c1cc(C2CCCC2)nc2ccccc12
4. N#Cc1ccc(OC(=O)Nc2ccccc2C(F)(F)F)cc1
5. OCCSc1ccc(Cl)cc1

### Response
2
1.2
4.6
2.4
14.4

# return growth inhibition for each item in the list
1. CN(C)c1ccc(/C=C(\C#N)c2cccc(Br)c2)cc1
2. CN(C)c1ncnc2cn[nH]c12
3. CCOC(=O)c1c[nH]c2c(=O)n(C)c(=O)[nH]c12
4. C[N+](C)(C)C/C=C/C[N+](C)(C)C
5. COc1cc(C(O)C(CO)Oc2c(OC)cc(C3OCC4C(c5cc(OC)c(O)c(OC)c5)OCC34)cc2OC)ccc1O (configuration not stated)

### Response
[-2.45, 3.6, 7.25, 9.85, 20.1]

# return growth inhibition for each item in the list
1. CCOCCC(=O)O
2. COC1=CC(=O)C=C(C)C1=O
3. Cc1c(C)c(CC(=O)N2CC2)c(C)c(C)c1CC(=O)N1CC1
4. COC(=O)C(C)c1cc2ccccc2[nH]1 (configuration not stated)
5. CCOC(=O)C(C(=O)c1cccnc1)C(C(=O)OCC)C(=O)c1cccnc1 (configuration not stated)

### Response
1. 26.1
2. 19.4
3. -23.4
4. -8
5. 5.1

====

Experiment: NCI Yeast Anticancer Drug Screen. Data for the mlh1 rad18 strain (AID 175)
Settings: S. cerevisiae mlh1 rad18 strain growth inhibition; at 50.0 µM; active compounds read high
This is part of a sample that, as a whole, favours compounds with a hit. Of some 79,000 tested, about 15% had one in any assay.
Kindly state growth inhibition for each of the entries shown.
Numbers only, in %.

Example results:
# molecule, growth inhibition (%)
data = [
    ("CSCNC(=S)Nc1ccc(Cl)c(Cl)c1", 61.3),
    ("CCOC(=O)C(CCCN=C(N)NC(=O)OCc1ccccc1)NC(=O)C(C(C)C)N1C(=O)c2ccccc2C1=O (stereo not drawn)", 96),
    ("CC[P+](C)(C)c1ccccc1", 2.75),
    ("CN(C(=O)/C=C/c1ccccc1)c1ccccc1", 32.4),
    ("O=C1C(Cl)C(c2cccc(O)c2)N1n1cnc2ccccc2c1=O (stereo not drawn)", -0.95),
]

# return growth inhibition for each item in the list
1. O=NN1C2CCCCC2C2CCCCC21 (stereo not drawn)
2. O=C(NC(=O)c1cn(CCN(CCO)C(=O)NCCCCCCNC(=O)N(CCO)CCn2cc(C(=O)NC(=O)OCc3ccccc3)c(=O)[nH]c2=O)c(=O)[nH]c1=O)OCc1ccccc1
3. Oc1ccc(-c2ccc(O)cc2O)c(O)c1

### Response
1: 3.8; 2: -17.9; 3: 14.2

# return growth inhibition for each item in the list
1. CN(C)CC(=O)N1CCc2c([nH]c3ccccc23)C1c1cccnc1 (stereo not drawn)
2. Nc1nnc(CCC(=O)Nc2cccc(C(F)(F)F)c2)n1N
3. CC1NC(=O)C(C)C(c2ccccc2)N(N=O)C1c1ccccc1 (stereo not drawn)
4. CCOC(=O)NC(NC(=O)OCC)c1ccc(C(NC(=O)OCC)NC(=O)OCC)cc1

### Response
1. -16.9
2. 1.55
3. 11
4. 7.9

# return growth inhibition for each item in the list
1. Cc1cccc(C)c1/[N+]([O-])=C/c1cccc([N+](=O)[O-])c1
2. NNC(=Nc1ccccc1)SCc1ccccc1

### Response
-2.25
-30.9

# return growth inhibition for each item in the list
1. Cc1ncc([N+](=O)[O-])n1CCNC(=O)CCCCCn1ccnc1[N+](=O)[O-]
2. C[C@]12CCC(=O)C=C1CC[C@@H]1C2CC[C@]2(C)Nc3[nH]ncc3CC12 (stereo partly drawn)
3. CSc1sc2ccc(S(=O)(=O)O)cc2[n+]1C
4. O=[N+]([O-])c1ccc2c(c1)Cc1cc([N+](=O)[O-])ccc1-2
5. CC(C)(C)OC(=O)NCCc1ccc(N)cc1
6. NCCc1c(-c2cccnc2)[nH]c2ccccc12

### Response
-35.2
27.1
9.8
51.2
-10.2
1.1

# return growth inhibition for each item in the list
1. CCOC(=O)/C=C1\CCC(C)n2c1nccc2=O (stereo not drawn)
2. CC(C)SSC(=O)N1CCCC1C(=O)O (stereo not drawn)
3. Nc1ccc2ccc(NS(=O)(=O)N3CCCCC3)cc2c1

### Response
1. 14.3
2. -1.7
3. 50.9

====

Assay: NCI Yeast Anticancer Drug Screen. Data for the bub3 strain (AID 167)
Conditions: S. cerevisiae bub3 mutant strain, at 50.0 µM, active compounds read high
The panel holds about 79,000 compounds, 15% with a hit somewhere; the sample as a whole holds those more often. The source made the active and inactive calls. Rule as the data show it: active = growth inhibition above about 70%; inactive = the rest.
Kindly state growth inhibition for each of the entries shown.

Example results:
# compound, result
records = [
    ("COC(=O)CN(c1ccc(C#N)c2ccccc12)S(=O)(=O)c1ccccc1", "4.25% (inactive)"),
    ("COc1cc(-c2c(C)oc(C)c2C(C)=O)ccc1OCc1ccccc1", "14.8% (inactive)"),
    ("COC(=O)c1ccccc1NC(=O)Nc1ccccc1", "4.25% (inactive)"),
    ("CC(C)(C)c1cc(C[N+](C)(C)[O-])c(O)c(-c2ccccc2)c1", "6.35% (inactive)"),
    ("Cc1cc2ncn(C3OC(CO)C(O)C3O)c2cc1C (stereo unspecified)", "-8.2% (inactive)"),
]

### Prompt Please give the measured growth inhibition for this compound: O=C(O)c1cccc(SS(=O)(=O)c2cccc(C(=O)O)c2)c1
### Response 7.5% (inactive)

Provenance of the data: PubChem BioAssay (NCI)
